# Assay comment: Fraction unbound in NMRI mouse at 10 mg/kg, iv by rapid equilibrium dialysis
# Format: ADME, organism-based
# Condition details: plasma
fraction unbound listing for selected compounds.
Metric: fraction unbound

COc1ccc2ncc(F)c(C[C@H](N)[C@@H]3CC[C@@H](NCc4ccc5c(n4)NC(=O)CO5)CO3)c2n1: 0.15
COc1ccc2ncc(F)c(CC(N)[C@@H]3CC[C@@H](NCc4ccc5c(n4)NC(=O)CO5)CO3)c2n1 (mixture of isomers): 0.154

----------
# Assay comment: Terminal half-life in Wistar rat at 1 mg/kg, iv by LC-MS/MS analysis
# Type: ADME, organism-based
# Condition details: in vivo, read-out: beta t1/2 (converted)
Metric: half-life (h)

COc1ccc2ncc(F)c(C[C@H](O)[C@@H]3CC[C@@H](NCc4ccc5c(n4)NC(=O)CO5)CO3)c2n1: 1.3
COc1ccc2ccc(=O)n(C[C@H](O)[C@@H]3CC[C@@H](NCc4ccc5c(n4)NC(=O)CO5)CO3)c2n1: 1
